IC50 for assorted compounds
Test system: metabolism of retinoic acid in human breast cancer cells
experimentNotes: Inhibition of retinoic acid (RA) metabolism (Example C.1)
Assay type: cell-based
studyConditions: MCF-7 human breast cancer cells, 3H-RA as substrate; concentration needed to reduce the amount of metabolites to 50% of the control

Problem: Input CC(C)C(c1ccc(NC(=O)C2CC2C)cc1)n1ccnc1 (mixture of isomers) , output reported IC50.
Result: 5.61 nM

Problem: Input CC(C)C(c1ccc(NC(=O)c2cnccn2)cc1)n1ccnc1 (racemic) , output reported IC50.
Result: 12.2 nM

Problem: Input CC(C)C(c1ccc(NC(=O)Nc2ccccc2)cc1)n1ccnc1 (racemic) , output reported IC50.
Result: 0.261 nM

Problem: Input Cc1ccccc1C(=Cc1ccccc1)C(=O)Nc1ccc(C(C(C)C)n2ccnc2)cc1 (racemic) , output reported IC50.
Result: 140 nM

---

Tested on: metabolism of retinoic acid in human breast cancer cells
experimentNotes: Inhibition of retinoic acid (RA) metabolism (Example C.1)
Assay type: cell-based
studyConditions: MCF-7 human breast cancer cells, 3H-RA as substrate; concentration needed to reduce the amount of metabolites to 50% of the control
# label = fulfilled if IC50 < 4 nM else not fulfilled

Solved entries:
>>> classassignment("CCCCCC(C)C(c1ccc(NC(=O)/C(C)=C/c2ccccc2)cc1)n1ccnc1 (single isomer, unassigned)")
"not fulfilled"
>>> classassignment("CCC(C)C(c1ccc(NC(=O)Cc2ccc(O)c(OC)c2)cc1)n1ccnc1 (centres unmarked)")
"fulfilled"
>>> classassignment("CC(C)C(c1ccc(NC(=O)Cc2ccc(Cl)cc2)cc1)(C(C)C)n1cncn1")
"fulfilled"
>>> classassignment("COc1ccc(CC(=O)Nc2ccc(C(n3cncn3)C(C)(C)C)cc2)cc1OC.O (centres unmarked)")
"fulfilled"
>>> classassignment("CCC(CC)C(c1ccc(NC(=O)Nc2cccc(F)c2)cc1)n1ccnc1 (racemic)")
"fulfilled"
>>> classassignment("CCCCC(CC)C(c1ccc(NC(=O)C(C)=Cc2ccccc2)cc1)n1ccnc1 (mixture of isomers)")
"not fulfilled"

Moving on to another molecule below.
Problem: Determine if COc1ccc(NC(=O)Nc2ccc(C(C(C)C)n3ccnc3)cc2)cc1 (racemic) shows IC50 strictly lower than 4 nM.
Result: not fulfilled

---

Tested on: metabolism of retinoic acid in human breast cancer cells
experimentNotes: Inhibition of retinoic acid (RA) metabolism (Example C.1)
Format: cell-based
studyConditions: MCF-7 human breast cancer cells, 3H-RA as substrate; concentration needed to reduce the amount of metabolites to 50% of the control
pIC50 for assorted compounds
For clarity, pIC50 is expressed as the negative log10 of concentration in mol/L.

Example results:
>>> resultnumber("CCN(CC)C(C)C(c1ccc(NC(=O)Cc2ccc(OC)c(OC)c2)cc1)n1ccnc1 (single isomer, unassigned)")
9.14
>>> resultnumber("CCC/C(=C\\c1ccccc1)C(=O)Nc1ccc(C(C(C)C)n2ccnc2)cc1 (racemic)")
6.83
>>> resultnumber("O=C(Nc1ccc(C(c2ccccc2)n2ccnc2)cc1)C(O)c1ccccc1 (centres unmarked)")
7.08
>>> resultnumber("COc1cccc(CC(=O)Nc2ccc(C(C(C)C)n3ccnc3)cc2)c1 (racemic)")
8.23
>>> resultnumber("CC(C)C(c1ccc(NC(=O)Cc2cccc(C(F)(F)F)c2)cc1)n1ccnc1 (racemic)")
8.63

Now consider a different compound.
Problem: Tell me pIC50 of CC(C)C(c1ccc(NC(=O)Cc2cccs2)cc1)n1ccnc1 (racemic) when tested on metabolism of retinoic acid in human breast cancer cells.
Result: 8.64

---

System: metabolism of retinoic acid in human breast cancer cells
experimentNotes: Inhibition of retinoic acid (RA) metabolism (Example C.1)
Assay type: cell-based
studyConditions: MCF-7 human breast cancer cells, 3H-RA as substrate; concentration needed to reduce the amount of metabolites to 50% of the control
pIC50 for assorted compounds
For clarity, pIC50 is expressed as the negative log10 of concentration in mol/L.

Example results:
>>> resultnumber("CCC(CC)C(c1ccc(NC(=O)Cc2ccc(OC)nc2)cc1)n1ccnc1 (racemic)")
9.05
>>> resultnumber("CC(C)C(c1ccc(NC(=O)Cc2ccc(Cl)cc2)cc1)n1ccnc1 (stereo not drawn)")
7.98
>>> resultnumber("CC(C)C(c1ccc(NC(=O)c2ccc3c(c2)CCC(=O)N3)cc1)n1ccnc1 (racemic)")
7.93

Now consider a different compound.
Problem: Input CCCN(C)C(C)C(c1ccc(NC(=O)Cc2ccc(OC)c(OC)c2)cc1)n1ccnc1 (single isomer, unassigned) , output reported pIC50.
Result: 8.28

---

Test system: metabolism of retinoic acid in human breast cancer cells
experimentNotes: Inhibition of retinoic acid (RA) metabolism (Example C.1)
Type: cell-based
studyConditions: MCF-7 human breast cancer cells, 3H-RA as substrate; concentration needed to reduce the amount of metabolites to 50% of the control
Method: The property to delay the metabolism of retinoic acid can be evidenced in various in vitro and in vivo experiments. […] MCF-7 human breast cancer cells were grown as stock cultures according to art-known protocols. […] The fraction containing the polar ^3H-labelled metabolites was collected and counted in a scintillation counter. […]
IC50 for assorted compounds
Output spec: scalar in µM, unitless text.

>>> resultnumber("COC(C(=O)Nc1ccc(C(C(C)C)n2ccnc2)cc1)c1ccccc1 (mixture of isomers) [Compound 670]")
0.00572
>>> resultnumber("CCCC(c1ccc(NC(=O)Cc2ccc(Cl)cc2)cc1)n1ccnc1 (centres unmarked) [Compound 363]")
0.00142
>>> resultnumber("CC(Sc1ccccc1)C(c1ccc(NC(=O)Cc2ccc(Cl)cc2)cc1)n1ccnc1 (single isomer, unassigned) [Compound 369]")
0.0822
>>> resultnumber("CC(C)C(c1ccc(NC(=O)c2cccc3c2OCCO3)cc1)n1ccnc1 (racemic) [Compound 230]")
0.00389
>>> resultnumber("CCC(c1ccc(NC(=O)/C(C)=C/c2ccccc2)cc1)n1ccnc1 (racemic) [Compound 460]")
0.0363

Problem: Input CC1C(C(=O)Nc2ccc(C(C(C)C)n3ccnc3)cc2)=Cc2ccccc21 (mixture of isomers) [Compound 180] , output reported IC50.
Result: 0.0569

Problem: Input CC(C)C(c1ccc(NC(=O)Cc2ccc(N)cc2)cc1)n1ccnc1 (centres unmarked) [Compound 152] , output reported IC50.
Result: 0.00518

Problem: Input CC(C)C(c1ccc(NC(=O)C(F)=Cc2ccccc2)cc1)n1ccnc1 (racemic) [Compound 461] , output reported IC50.
Result: 0.0169

---

System: metabolism of retinoic acid in human breast cancer cells
experimentNotes: Inhibition of retinoic acid (RA) metabolism (Example C.1)
Format: cell-based
studyConditions: MCF-7 human breast cancer cells, 3H-RA as substrate; concentration needed to reduce the amount of metabolites to 50% of the control
reportedEndpoint: log10 IC50 (log10 of the value in nM)
On a log10 scale: recorded IC50, unit nM.

Example results:
>>> resultnumber("CC(C)C(c1ccncc1)c1ccc(NC(=O)Cc2ccc(Cl)cc2)cc1 (racemic)")
1.96
>>> resultnumber("CNC(=S)Nc1ccc(C(C(C)C)n2ccnc2)cc1 (racemic)")
0.91
>>> resultnumber("CC(C)C(c1ccc(NC(=O)c2cccs2)cc1)n1ccnc1 (centres unmarked)")
1.27

Problem: Input CCC(CC)C(c1ccc(NC(=O)Cc2ccccc2O)cc1)n1ccnc1 (racemic) , output reported log10 IC50.
Result: 0.16

Problem: Input CC(C)C(c1ccc(NC(=O)c2ccco2)cc1)n1ccnc1 (racemic) , output reported log10 IC50.
Result: -0.27

Problem: Input CCC(CC)C(c1ccc(NC(=O)Cc2ccc(C)c(C)c2)cc1)n1cncn1 (racemic) , output reported log10 IC50.
Result: -0.48

Problem: Input CC(C)C(c1ccc(NC(=S)Nc2ccccc2F)cc1)n1ccnc1 (racemic) , output reported log10 IC50.
Result: 1.08

Problem: Input CC(C)C(c1ccc(NC(=O)Cc2ccsc2)cc1)n1ccnc1 (racemic) , output reported log10 IC50.
Result: 0.45

---

IC50 for assorted compounds
Test system: metabolism of retinoic acid in human breast cancer cells
experimentNotes: Inhibition of retinoic acid (RA) metabolism (Example C.1)
Type: cell-based
studyConditions: MCF-7 human breast cancer cells, 3H-RA as substrate; concentration needed to reduce the amount of metabolites to 50% of the control
Output spec: scalar in nM, unitless text.

Example results:
>>> resultnumber("CC(C)C(c1ccc(NC(=O)Cc2ccc(Cl)cc2)cc1)n1cncn1 (stereo not shown)")
4.1
>>> resultnumber("C/C(=C\\c1ccc2ncccc2c1)C(=O)Nc1ccc(C(C(C)C)n2ccnc2)cc1 (racemic)")
2.78
>>> resultnumber("CC(C(c1ccc(NC(=O)Cc2ccc(Cl)cc2)cc1)n1ccnc1)N(C)C (single isomer, unassigned) [Compound 368]")
0.583

Problem: Tell me IC50 of CC(C)C(c1ccc(NC(=O)C2CCCCC2C)cc1)n1ccnc1 (racemic) when tested on metabolism of retinoic acid in human breast cancer cells.
Result: 1.84

---

IC50 for assorted compounds
Tested on: metabolism of retinoic acid in human breast cancer cells
experimentNotes: Inhibition of retinoic acid (RA) metabolism (Example C.1)
Type: cell-based
studyConditions: MCF-7 human breast cancer cells, 3H-RA as substrate; concentration needed to reduce the amount of metabolites to 50% of the control
Output spec: scalar in nM, unitless text.

Example results:
>>> resultnumber("COc1cc(CC(=O)Nc2ccc(C(C(C)C)n3cncn3)cc2)ccc1O (centres unmarked)")
6.38
>>> resultnumber("CCC(CC)C(c1ccc(NC(=O)Cc2ccc(Cl)c(OC)c2)cc1)n1cncn1 (racemic)")
0.162
>>> resultnumber("CCC(CC)C(c1ccc(NC(=O)Nc2ccccc2F)cc1)n1cncn1 (racemic)")
0.154
>>> resultnumber("CCC(CC)C(c1ccc(NC(=O)Cc2ccc(OCc3cccnc3)cc2)cc1)n1ccnc1 (centres unmarked)")
0.0109
>>> resultnumber("CC(C)C(c1ccc(NC(=O)C2=Cc3ccccc3OC2)cc1)n1ccnc1 (racemic)")
6.47
>>> resultnumber("C/C(=C\\c1ccccc1)C(=O)Nc1ccc(C(C2CCCCC2)n2ccnc2)cc1 (racemic)")
24.5

Now consider a different compound.
Problem: Input CC(C)(C)CC(c1ccc(NC(=O)Cc2ccc(Cl)cc2)cc1)n1cncn1 (racemic) , output reported IC50.
Result: 1.38
